Let's look at some IC50 data for Serine/threonine-protein kinase Chk1 (Homo sapiens) that I collected from the literature.

Molecule	IC50
O=C(Nc1c[nH]c(=O)c(-c2cc3cc(CN4CCCCC4)ccc3[nH]2)c1)c1cnn(Cc2ccc(Cl)cc2)c1	< 0.1 µM
CS(=O)(=O)NCCOc1cccc(CNc2c(Nc3ccc4[nH]cnc4c3)c(=O)c2=O)c1	> 1 µM
Cc1cc(Nc2c(NCc3cccc(O)c3)c(=O)c2=O)cn2ccnc12	> 1 µM
CC(c1ccc(F)cc1)n1cc(C(=O)Nc2c[nH]c(=O)c(-c3cc4cc(CN5CCCCC5)ccc4[nH]3)c2)cn1 (centres unmarked)	< 0.1 µM
CN1CCN(Cc2ccc3[nH]c(-c4cc(C(=O)Nc5cnn(Cc6ccc(F)c(F)c6)c5)c[nH]c4=O)cc3c2)CC1	< 0.1 µM
CC(=O)Nc1cccc(CNc2c(Nc3ccc4[nH]cnc4c3)c(=O)c2=O)c1	> 1 µM
CN(C)CCCOc1ccc(Cl)cc1NC(=O)Nc1cnc2ccccc2n1	0.019 µM
Cc1ccc(Cn2cc(C(=O)Nc3c[nH]c(=O)c(-c4cc5cc(OCC(C)(C)CN(C)C)ccc5[nH]4)c3)cn2)cc1	< 0.1 µM

====

pIC50: −log10 of the molar value.
Let's look at some pIC50 data for Serine/threonine-protein kinase Chk1 (Homo sapiens, UniProt O14757) that I collected from the literature.

Molecule	System Tested	pIC50
CNS(=O)(=O)c1ccc(CN(C)c2c(Nc3ccc4[nH]cnc4c3)c(=O)c2=O)cc1	Serine/threonine-protein kinase Chk1 (Homo sapiens, UniProt O14757)	< 6.00
COc1cccc([C@@H](C)Nc2c(Nc3ccc4ncn(C)c4c3)c(=O)c2=O)c1	Serine/threonine-protein kinase Chk1 (Homo sapiens, UniProt O14757)	> 6.00
O=C(Nc1cnn(Cc2ccc(Cl)cc2)c1)c1c[nH]c(=O)c(-c2cc3ccccc3[nH]2)c1	Serine/threonine-protein kinase Chk1 (Homo sapiens, UniProt O14757)	6.30 to 7.00
O=c1[nH]c2cc(CNc3c(Nc4ccc5[nH]cnc5c4)c(=O)c3=O)ccc2o1	Serine/threonine-protein kinase Chk1 (Homo sapiens, UniProt O14757)	< 6.00
C#CCOc1nc(Nc2cc(CO)cc(NC(=O)[C@H](N)Cc3ccccc3)c2)ncc1Br	Serine/threonine-protein kinase Chk1 (Homo sapiens, UniProt O14757)	6.70
CCN(CC)Cc1ccc2[nH]c(-c3cc(NC(=O)c4cnn(Cc5ccc(C)cc5)c4)c[nH]c3=O)cc2c1	Serine/threonine-protein kinase Chk1 (Homo sapiens, UniProt O14757)	> 7.00
C[C@@H]1CCCCN1Cc1ccc2[nH]c(-c3cc(NC(=O)c4cnn(Cc5ccccc5)c4)c[nH]c3=O)cc2c1	Serine/threonine-protein kinase Chk1 (Homo sapiens, UniProt O14757)	> 7.00
CN(Cc1ccc2[nH]c(-c3cc(NC(=O)c4cnn(Cc5ccccc5)c4)c[nH]c3=O)cc2c1)C1CCCCC1	Serine/threonine-protein kinase Chk1 (Homo sapiens, UniProt O14757)	> 7.00
Cc1ccc(Cn2cc(C(=O)Nc3c[nH]c(=O)c(-c4cc5cc(OCCN6CC(C)OC(C)C6)ccc5[nH]4)c3)cn2)cc1 (stereo not drawn)	Serine/threonine-protein kinase Chk1 (Homo sapiens, UniProt O14757)	> 7.00
NC(=O)c1cccc(CNc2c(Nc3ccc(O)c(-c4ccccn4)c3)c(=O)c2=O)c1	Serine/threonine-protein kinase Chk1 (Homo sapiens, UniProt O14757)	> 6.00
Cc1ccc(Cn2cc(C(=O)Nc3c[nH]c(=O)c(-c4cc5cc(OCCCN6CCN(C)CC6)ccc5[nH]4)c3)cn2)cc1	Serine/threonine-protein kinase Chk1 (Homo sapiens, UniProt O14757)	> 7.00
O=c1c(NCc2cccc(F)c2)c(Nc2ccc3[nH]cnc3c2)c1=O	Serine/threonine-protein kinase Chk1 (Homo sapiens, UniProt O14757)	< 6.00
CCc1cccc(Cn2cc(C(=O)Nc3c[nH]c(=O)c(-c4cc5cc(OCCCN6CCCCC6)ccc5[nH]4)c3)cn2)c1	Serine/threonine-protein kinase Chk1 (Homo sapiens, UniProt O14757)	> 7.00
C[N+](C)([O-])CCCOc1ccc(Cl)cc1NC(=O)Nc1cnc(C#N)cn1	Serine/threonine-protein kinase Chk1 (Homo sapiens, UniProt O14757)	7.62
Cc1ccc(Cn2cc(C(=O)Nc3c[nH]c(=O)c(-c4cc5cc(OCCN(C)C)ccc5[nH]4)c3)cn2)cc1	Serine/threonine-protein kinase Chk1 (Homo sapiens, UniProt O14757)	> 7.00
CC(C)(C)OC(=O)N1CCC(Oc2ccccc2CNc2c(Nc3ccc4[nH]cnc4c3)c(=O)c2=O)CC1	Serine/threonine-protein kinase Chk1 (Homo sapiens, UniProt O14757)	< 6.00
Cc1ccc(Cn2cc(NC(=O)c3c[nH]c(=O)c(-c4cc5ccccc5[nH]4)c3)cn2)cc1	Serine/threonine-protein kinase Chk1 (Homo sapiens, UniProt O14757)	6.30 to 7.00
CS(=O)(=O)c1cccc(CNc2c(Nc3ccc4[nH]cnc4c3)c(=O)c2=O)c1	Serine/threonine-protein kinase Chk1 (Homo sapiens, UniProt O14757)	< 6.00
C[C@@H]1CN(Cc2ccc3[nH]c(-c4cc(NC(=O)c5cnn(Cc6ccccc6)c5)c[nH]c4=O)cc3c2)C[C@H](C)O1	Serine/threonine-protein kinase Chk1 (Homo sapiens, UniProt O14757)	> 7.00
O=c1c(NCc2ccc(O)cc2)c(Nc2ccc3[nH]cnc3c2)c1=O	Serine/threonine-protein kinase Chk1 (Homo sapiens, UniProt O14757)	< 6.00
CC(=O)Nc1ccc(C(=O)Nc2sc(Nc3ccccc3)nc2C(N)=O)cc1	Serine/threonine-protein kinase Chk1 (Homo sapiens, UniProt O14757)	< 6.52
O=C(Nc1c[nH]c(=O)c(-c2cc3cc(CN4CCCCC4)ccc3[nH]2)c1)c1cnn(Cc2ccc(F)cc2)c1	Serine/threonine-protein kinase Chk1 (Homo sapiens, UniProt O14757)	> 7.00
CC(c1ccc(F)cc1)n1cc(C(=O)Nc2c[nH]c(=O)c(-c3cc4cc(CN5CCN(C)CC5)ccc4[nH]3)c2)cn1 (stereo not drawn)	Serine/threonine-protein kinase Chk1 (Homo sapiens, UniProt O14757)	> 7.00
O=C(Nc1c[nH]c(=O)c(-c2cc3cc(CN4CCN(CCO)CC4)ccc3[nH]2)c1)c1cnn(Cc2ccc(Cl)cc2)c1	Serine/threonine-protein kinase Chk1 (Homo sapiens, UniProt O14757)	> 7.00
CC(C)(C)c1ccc(Cn2cc(C(=O)Nc3c[nH]c(=O)c(-c4cc5cc(OCCN6CCCCC6)ccc5[nH]4)c3)cn2)cc1	Serine/threonine-protein kinase Chk1 (Homo sapiens, UniProt O14757)	> 7.00
NCCCOc1ccc(Cl)cc1NC(=O)Nc1cnccn1	Serine/threonine-protein kinase Chk1 (Homo sapiens, UniProt O14757)	8.60
COc1cccc(OC[C@@H]2CNCCO2)c1-c1cc(Nc2cnc(C#N)cn2)n[nH]1	Serine/threonine-protein kinase Chk1 (Homo sapiens, UniProt O14757)	9.08
NS(=O)(=O)c1cccc(CNc2c(Nc3ccc(O)c(-c4ccccn4)c3)c(=O)c2=O)c1	Serine/threonine-protein kinase Chk1 (Homo sapiens, UniProt O14757)	> 6.00
Cc1ccc(Cn2cc(C(=O)Nc3c[nH]c(=O)c(-c4cc5cc(CN6CCCC6)ccc5[nH]4)c3)cn2)cc1	Serine/threonine-protein kinase Chk1 (Homo sapiens, UniProt O14757)	> 7.00
CC1CCN(Cc2ccc3[nH]c(-c4cc(NC(=O)c5cnn(Cc6ccc(F)cc6)c5)c[nH]c4=O)cc3c2)CC1	Serine/threonine-protein kinase Chk1 (Homo sapiens, UniProt O14757)	> 7.00

====

Let's look at some pIC50 data for Serine/threonine-protein kinase Chk1 (Homo sapiens, UniProt O14757) that I collected from the literature.
pIC50: −log10 of the molar value.
Endpoint: pIC50

Compound	Endpoint	Result
C[C@@H](Nc1c(Nc2ccc(O)c(-c3ccccn3)c2)c(=O)c1=O)c1cccc(O)c1	pIC50	> 7.00
O=c1c(NCCc2cccc(O)c2)c(Nc2ccc(O)c(-c3ccccn3)c2)c1=O	pIC50	> 6.00
COCCn1cnc2cc(Nc3c(N[C@H](C)c4cccc(O)c4)c(=O)c3=O)ccc21	pIC50	< 6.00
Cc1cccc(Cn2cc(NC(=O)c3c[nH]c(=O)c(-c4cc5ccccc5[nH]4)c3)cn2)c1	pIC50	> 7.00
CCN(CCO)Cc1ccc2[nH]c(-c3cc(C(=O)Nc4cnn(Cc5ccc(F)c(F)c5)c4)c[nH]c3=O)cc2c1	pIC50	> 7.00
CNS(=O)(=O)c1cccc(CNc2c(Nc3ccc4[nH]cnc4c3)c(=O)c2=O)c1	pIC50	< 6.00
O=C(Nc1cnn(Cc2ccccc2F)c1)c1c[nH]c(=O)c(-c2cc3ccccc3[nH]2)c1	pIC50	6.30 to 7.00
Cc1c(O)cccc1CNc1c(Nc2ccc3[nH]cnc3c2)c(=O)c1=O	pIC50	< 6.00
COc1cccc(OC[C@H]2CCNC2)c1-c1cc(Nc2cnc(C#N)cn2)n[nH]1	pIC50	9.35
CC(Nc1c(Nc2ccc3[nH]ncc3c2)c(=O)c1=O)c1cccc(NC(N)=O)c1 (racemic)	pIC50	< 6.00
O=c1c(NCc2ccc(Cl)c(Cl)c2)c(Nc2ccc3[nH]cnc3c2)c1=O	pIC50	< 6.00
COc1cc(C)cc(OCC2(CN)CC2)c1-c1cc(Nc2cnc(C#N)cn2)n[nH]1	pIC50	≥ 9.00
CC1CCN(Cc2ccc3[nH]c(-c4cc(NC(=O)c5cnn(C(C)c6ccccc6)c5)c[nH]c4=O)cc3c2)CC1 (stereo not shown)	pIC50	> 7.00
O=c1c(NCc2cccc(B(O)O)c2)c(Nc2ccc3[nH]cnc3c2)c1=O	pIC50	< 6.00
C[C@@H]1CN(Cc2ccc3[nH]c(-c4cc(NC(=O)c5cnn([C@@H](C)c6ccccc6)c5)c[nH]c4=O)cc3c2)C[C@H](C)O1	pIC50	> 7.00
COc1cc(Br)cc(OCC2(CN)CC2)c1-c1cc(Nc2cnc(C#N)cn2)n[nH]1	pIC50	≥ 9.00
O=C(CC(Nc1c(Nc2ccc3[nH]cnc3c2)c(=O)c1=O)c1cccc(O)c1)N1CCNCC1 (stereo not shown)	pIC50	> 6.00
COc1cccc([C@@H](C)Nc2c(Nc3ccc(O)c(-n4cccn4)c3)c(=O)c2=O)c1	pIC50	> 6.00
O=C(Nc1c[nH]c(=O)c(-c2cc3ccccc3[nH]2)c1)c1cnn(Cc2cccc(F)c2)c1	pIC50	> 7.00
O=C(Nc1cnn(Cc2cccnc2)c1)c1c[nH]c(=O)c(-c2cc3ccccc3[nH]2)c1	pIC50	> 7.00
O=C(Nc1c[nH]c(=O)c(-c2cc3cc(OCCCN4CCCC4=O)ccc3[nH]2)c1)c1cnn(Cc2ccccc2)c1	pIC50	> 7.00
CN1CCN(Cc2ccc3[nH]c(-c4cc(NC(=O)c5cnn(Cc6ccc(Cl)cc6)c5)c[nH]c4=O)cc3c2)CC1	pIC50	> 7.00
Cc1ccc(Cn2cc(C(=O)Nc3c[nH]c(=O)c(-c4cc5cc(CN6CCC(CO)CC6)ccc5[nH]4)c3)cn2)cc1	pIC50	> 7.00
O=C(Nc1c[nH]c(=O)c(-c2cc3cc(CN4CCCCC4)ccc3[nH]2)c1)c1cnn(CCc2ccc(F)cc2)c1	pIC50	> 7.00
Cc1ccc(Cn2cc(C(=O)Nc3c[nH]c(=O)c(-c4cc5cc(CN(C)CCO)ccc5[nH]4)c3)cn2)cc1	pIC50	> 7.00
